Cited source: patent US11851418B2

The reader will find IC50 measurements below, all made with Human PKK (Homo sapiens).
Sequence (P03952 391-638 limits assumed): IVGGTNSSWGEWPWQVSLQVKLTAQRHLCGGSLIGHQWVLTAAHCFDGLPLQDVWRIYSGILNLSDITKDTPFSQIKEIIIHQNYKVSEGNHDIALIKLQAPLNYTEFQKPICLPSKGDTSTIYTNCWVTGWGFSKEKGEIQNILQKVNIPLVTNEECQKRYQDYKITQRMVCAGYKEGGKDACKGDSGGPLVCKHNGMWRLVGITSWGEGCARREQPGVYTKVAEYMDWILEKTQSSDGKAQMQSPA
Sequence (P03952 20-390 partner limits assumed): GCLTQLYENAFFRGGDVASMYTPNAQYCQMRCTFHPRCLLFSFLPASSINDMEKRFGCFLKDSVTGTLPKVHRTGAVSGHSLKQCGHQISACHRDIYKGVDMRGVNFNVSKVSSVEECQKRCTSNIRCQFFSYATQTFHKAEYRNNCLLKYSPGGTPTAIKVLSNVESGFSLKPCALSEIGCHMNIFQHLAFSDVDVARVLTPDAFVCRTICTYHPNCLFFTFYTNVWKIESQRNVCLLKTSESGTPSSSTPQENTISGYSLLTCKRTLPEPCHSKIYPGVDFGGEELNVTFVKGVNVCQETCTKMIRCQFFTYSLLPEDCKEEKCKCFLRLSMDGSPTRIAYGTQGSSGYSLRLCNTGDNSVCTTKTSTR
Record the value in nM, omitting the unit from your answer.

See these solved cases before continuing.
Cc1[nH]nc2c1CC[C@H]2NC(=O)c1cnn(Cc2cnc(N3CC4CC4C3)nc2C(F)F)c1 (some centres unmarked); 1.8
Cc1[nH]nc2c1CC[C@H]2NC(=O)c1cn(Cc2cnc(N3CC4CC4C3)cc2C(F)(F)F)cn1 (some centres unmarked); 1.8
Cc1[nH]nc2c1CC[C@H]2NC(=O)c1cn(Cc2cnc(N3CC4CC4C3)nc2C(F)F)cn1 (some centres unmarked); 2.1
Cc1[nH]nc2c1CC[C@H]2NC(=O)c1cnn(Cc2ccc(N3CC4(CC4)C3)nc2C(F)F)c1; 0.8

Now for the compound whose IC50 we want.
In: Could you tell me which IC50 is on file for Cc1[nH]nc2c1CC[C@H]2NC(=O)c1cn(Cc2ccc(N3CC4CC4C3)nc2C(F)F)nn1 (some centres unmarked) ?
Out: 0.9
